Numbers sourced from ChEMBL document CHEMBL3885861.

Assignment: determine reported RBC for the given molecules.
# Species: Rattus norvegicus
# assay-explanation: Open TG-GATES - Regimen: Single
# Type: toxicity, organism-based, Sprague-Dawley
# Design: regimen Single, gender Male, age 6 weeks
# reported-conditions: in vivo, po, 100 mg/kg, 6 h, tissue Blood, route gavage, dose level Low
Give bare numbers, in x10_4/ul.

Known RBC results, listed for orientation:
molecule	RBC [x10_4/ul]
CN/C(=N/CCSCc1nc[nH]c1C)NC#N [CIMETIDINE]	596.8
Cc1nnc2n1-c1ccc(Cl)cc1C(c1ccccc1Cl)=NC2 [TRIAZOLAM]	657.4
CNC(=C[N+](=O)[O-])NCCSCc1ccc(CN(C)C)o1 [RANITIDINE]	588
O=C(OC[C@H]1O[C@@H](OC(=O)c2cc(O)c(O)c(OC(=O)c3cc(O)c(O)c(O)c3)c2)[C@H](OC(=O)c2cc(O)c(O)c(OC(=O)c3cc(O)c(O)c(O)c3)c2)[C@@H](OC(=O)c2cc(O)c(O)c(OC(=O)c3cc(O)c(O)c(O)c3)c2)[C@@H]1OC(=O)c1cc(O)c(O)c(OC(=O)c2cc(O)c(O)c(O)c2)c1)c1cc(O)c(O)c(OC(=O)c2cc(O)c(O)c(O)c2)c1 [TANNIC ACID]	564

Let us move to another entry and its RBC.
Incoming: Which RBC is reported for this molecule? COC(=O)C1=C(C)NC(C)=C(C(=O)OC)C1c1ccccc1[N+](=O)[O-] [NIFEDIPINE]
Outgoing: 634.8

* * *

# Species: Rattus norvegicus
# assay-explanation: Open TG-GATES - Regimen: Daily Repeat
# Assay type: toxicity, organism-based, Sprague-Dawley
# Design: regimen Daily Repeat, gender Male, age 6 weeks
# reported-conditions: in vivo, po, 300 mg/kg, […], tissue Blood, route gavage, dose level Middle, time 7 day
Mark TRUE only for WBC values smaller than 100 x10_2/uL; exact matches and larger values are FALSE.

structure-notation	class
Cc1nnc2n1-c1ccc(Cl)cc1C(c1ccccc1Cl)=NC2	FALSE
O=C(OC[C@H]1O[C@@H](OC(=O)c2cc(O)c(O)c(OC(=O)c3cc(O)c(O)c(O)c3)c2)[C@H](OC(=O)c2cc(O)c(O)c(OC(=O)c3cc(O)c(O)c(O)c3)c2)[C@@H](OC(=O)c2cc(O)c(O)c(OC(=O)c3cc(O)c(O)c(O)c3)c2)[C@@H]1OC(=O)c1cc(O)c(O)c(OC(=O)c2cc(O)c(O)c(O)c2)c1)c1cc(O)c(O)c(OC(=O)c2cc(O)c(O)c(O)c2)c1	FALSE
CNC(=C[N+](=O)[O-])NCCSCc1ccc(CN(C)C)o1	TRUE

Incoming: I'd appreciate it if you could check whether "COC(=O)C1=C(C)NC(C)=C(C(=O)OC)C1c1ccccc1[N+](=O)[O-]" has WBC smaller than 100 x10_2/uL.
Outgoing: FALSE

Incoming: Record: "CCOc1ccc(NC(C)=O)cc1"
Outgoing: FALSE

Incoming: What do you get for "CN/C(=N/CCSCc1nc[nH]c1C)NC#N" ?
Outgoing: FALSE

* * *

# Species: Rattus norvegicus
# assay-explanation: Open TG-GATES - Regimen: Daily Repeat
# Format: toxicity, organism-based, Sprague-Dawley
# Set-up: regimen Daily Repeat, gender Male, age 6 weeks
# reported-conditions: in vivo, po, 1000 mg/kg, […], tissue Plasma, route gavage, dose level High, time 7 day
I'd be grateful if you could share measured AST for these entries.
Answers are plain numbers, in IU/L.

Answered cases to consult:
structure-notation	observed-measurement
COC(=O)C1=C(C)NC(C)=C(C(=O)OC)C1c1ccccc1[N+](=O)[O-]	68.2
CCOc1ccc(NC(C)=O)cc1	73.2
Cc1nnc2n1-c1ccc(Cl)cc1C(c1ccccc1Cl)=NC2	67.2
CN/C(=N/CCSCc1nc[nH]c1C)NC#N	72.2
CNC(=C[N+](=O)[O-])NCCSCc1ccc(CN(C)C)o1	65.4

Incoming: I would be grateful if you could share the reported AST for "O=C(OC[C@H]1O[C@@H](OC(=O)c2cc(O)c(O)c(OC(=O)c3cc(O)c(O)c(O)c3)c2)[C@H](OC(=O)c2cc(O)c(O)c(OC(=O)c3cc(O)c(O)c(O)c3)c2)[C@@H](OC(=O)c2cc(O)c(O)c(OC(=O)c3cc(O)c(O)c(O)c3)c2)[C@@H]1OC(=O)c1cc(O)c(O)c(OC(=O)c2cc(O)c(O)c(O)c2)c1)c1cc(O)c(O)c(OC(=O)c2cc(O)c(O)c(O)c2)c1" .
Outgoing: 60

* * *

For each record, write down the corresponding K.
# Organism: Rattus norvegicus
# assay-explanation: Open TG-GATES - Regimen: Single
# Assay type: toxicity, organism-based, Sprague-Dawley
# Parameters: regimen Single, gender Male, age 6 weeks
# reported-conditions: in vivo, po, 0 mg/kg, 6 h, tissue Plasma, route gavage, dose level Control
Give bare numbers, in meq/L.

# batch: return K for each of the 2 compounds below
1. CS(=O)(=O)O.Cc1ccc(NC(=O)c2ccc(CN3CCN(C)CC3)cc2)cc1Nc1nccc(-c2cccnc2)n1 [IMATINIB MESYLATE]
2. O=C(OC[C@H]1O[C@@H](OC(=O)c2cc(O)c(O)c(OC(=O)c3cc(O)c(O)c(O)c3)c2)[C@H](OC(=O)c2cc(O)c(O)c(OC(=O)c3cc(O)c(O)c(O)c3)c2)[C@@H](OC(=O)c2cc(O)c(O)c(OC(=O)c3cc(O)c(O)c(O)c3)c2)[C@@H]1OC(=O)c1cc(O)c(O)c(OC(=O)c2cc(O)c(O)c(O)c2)c1)c1cc(O)c(O)c(OC(=O)c2cc(O)c(O)c(O)c2)c1

Outgoing:
4.2
4.7

Incoming: I'd like to know its K. The compound in question is CN(C)CCC(c1ccc(Cl)cc1)c1ccccn1 (stereo not drawn)
Outgoing: 4.2

* * *

# Organism: Rattus norvegicus
# assay-explanation: Open TG-GATES - Regimen: Single
# Format: toxicity, organism-based, Sprague-Dawley
# Set-up: regimen Single, gender Male, age 6 weeks
# reported-conditions: in vivo, po, 0 mg/kg, 24 h, tissue Blood, route gavage, dose level Control
measurement-kind: Ret (%)
One number for each entry, in %.

Hello, I would appreciate it if you could give Ret for each entry below.
1. CCCc1cc(=O)[nH]c(=S)[nH]1 [PROPYLTHIOURACIL]
2. CN(C)CCC(c1ccc(Cl)cc1)c1ccccn1 (centres undefined) [CHLORPHENIRAMINE]
3. CN1C(=O)CCS(=O)(=O)C1c1ccc(Cl)cc1 (centres undefined) [CHLORMEZANONE]

Outgoing:
1: 9.6; 2: 8.4; 3: 7.2

Please state Ret for every molecule in the list that follows.
1. COC(=O)C1=C(C)NC(C)=C(C(=O)OC)C1c1ccccc1[N+](=O)[O-] [NIFEDIPINE]
2. CN/C(=N/CCSCc1nc[nH]c1C)NC#N [CIMETIDINE]
3. Cc1nnc2n1-c1ccc(Cl)cc1C(c1ccccc1Cl)=NC2 [TRIAZOLAM]

Outgoing:
8.7
7.2
8.3

Hey, can you go through the list below and give me Ret for every item?
1. CCOc1ccc(NC(C)=O)cc1 [PHENACETIN]
2. NC1=NC(=O)C(c2ccccc2)O1 (centres undefined) [PEMOLINE]
3. CNC(=C[N+](=O)[O-])NCCSCc1ccc(CN(C)C)o1 [RANITIDINE]

Outgoing:
7.8
8.8
6.6

* * *

# Species: Rattus norvegicus
# assay-explanation: Open TG-GATES - Regimen: Single
# Format: toxicity, organism-based, Sprague-Dawley
# Parameters: regimen Single, gender Male, age 6 weeks
# reported-conditions: in vivo, po, 1000 mg/kg, 3 h, tissue Plasma, route gavage, dose level High
measurement-kind: PL
Please provide the amount together with its unit, number first.

structure-notation	observed-measurement
O=C(OC[C@H]1O[C@@H](OC(=O)c2cc(O)c(O)c(OC(=O)c3cc(O)c(O)c(O)c3)c2)[C@H](OC(=O)c2cc(O)c(O)c(OC(=O)c3cc(O)c(O)c(O)c3)c2)[C@@H](OC(=O)c2cc(O)c(O)c(OC(=O)c3cc(O)c(O)c(O)c3)c2)[C@@H]1OC(=O)c1cc(O)c(O)c(OC(=O)c2cc(O)c(O)c(O)c2)c1)c1cc(O)c(O)c(OC(=O)c2cc(O)c(O)c(O)c2)c1	128.2 mg/dL

Quick batch: PL for everything below.
1. COC(=O)C1=C(C)NC(C)=C(C(=O)OC)C1c1ccccc1[N+](=O)[O-]
2. CNC(=C[N+](=O)[O-])NCCSCc1ccc(CN(C)C)o1
3. CN/C(=N/CCSCc1nc[nH]c1C)NC#N
4. Cc1nnc2n1-c1ccc(Cl)cc1C(c1ccccc1Cl)=NC2

Outgoing:
141.4 mg/dL
133.6 mg/dL
150.2 mg/dL
148.8 mg/dL
